Ref: patent US9750724B2

test: Single ascending dose study in pre- and post-menopausal women, pharmacokinetics; type: in vivo, human; conditions: female, human, in vivo, 1 mg, Cmax Mean

>  <Compound>
N#Cc1ccc(C(F)(c2ccc(C#N)cc2)n2cncn2)cc1 [CGP47645]

>  <Unit abbrev>
ng/mL

>  <Cmax>
12.8

$$$$

----------
assay: Single ascending dose study in pre- and post-menopausal women, pharmacokinetics; assay type: in vivo, human; settings: female, human, in vivo, 10 mg, Cmax Mean

>  <Substance smiles>
N#Cc1ccc(C(F)(c2ccc(C#N)cc2)n2cncn2)cc1

>  <Cmax (ng/mL)>
124

$$$$
